Hydrolysis at pH 2; Decay in % after 24 h values by entry
# test-summary: Hydrolytic stability assay at pH 2
# Format: physicochemical
# condition-label: buffer pH 2, 37° C., compounds of the invention

Recorded results for 3 compounds are shown here.
>>> value("CCNC(=O)c1ccc(Nc2nc3ccc(-c4ccc(C(=O)NCc5cccc(F)c5)cc4)cn3n2)c(OC)c1 [Example 07.1]")
"<10%"
>>> value("CCNC(=O)c1ccc(Nc2nc3ccc(-c4ccc(NC(=O)Cc5ccc(F)cc5)cc4)cn3n2)c(OCC)c1 [Example 01.16]")
"<10%"
>>> value("CCNC(=O)c1ccc(Nc2nc3ccc(-c4ccc(NC(=O)Cc5ccc(F)cc5)cc4)cn3n2)c(OC)c1 [Example 01.4]")
"<10%"

Query :: What Hydrolysis at pH 2; Decay in % after 24 h value was documented for this compound, CCOc1cc(F)ccc1Nc1nc2ccc(-c3ccc(NC(=O)Cc4ccc(F)cc4)cc3)cn2n1 [Example 01.3] ?
Result :: <10%

Query :: Try the compound CCN(CC)C(=O)c1ccc(Nc2nc3ccc(-c4ccc(NC(=O)Cc5ccc(F)cc5)cc4)cn3n2)c(OC)c1 [Example 01.1]
Result :: <10%

Query :: Try the compound CCOc1cc(C(=O)NC(C)(C)CO)ccc1Nc1nc2ccc(-c3ccc(NC(=O)Cc4ccc(F)cc4)cc3)cn2n1 [Example 01.9]
Result :: <10%

Query :: Try the compound CCN(CC)C(=O)c1ccc(Nc2nc3ccc(-c4ccc(NC(=O)Cc5ccc(F)cc5)cc4)cn3n2)c(OCC2CC2)c1 [Example 01.24]
Result :: <10%

* * *

# tested-system: Mps-1 kinase (Homo sapiens, UniProt P33981)
# test-summary: Mps-1 kinase assay with 2 mM ATP (TR-FRET)
pIC50: −log10 of the molar value.
test-readout: pIC50

Recorded results for 2 molecules are shown here.
>>> value("COc1cc(C(C)(C)O)ccc1Nc1nc2ccc(-c3ccc(C(=O)NCc4ccc(F)cc4)c(OC)c3)cn2n1 [Example 12.81]")
8.14
>>> value("Cc1cc(C(=O)N(C)C)ccc1Nc1nc2ccc(-c3ccc(NC(=O)Cc4ccc(F)cc4)cc3)cn2n1 [Example 12.31]")
8.42

A = Cc1cc(N(C)C)ccc1Nc1nc2ccc(-c3ccc(C(=O)NCc4ccc(F)cc4)cc3)cn2n1 [Example 02.24]
B = COc1cc(S(C)(=O)=O)ccc1Nc1nc2ccc(-c3ccc(NC(=O)Cc4ccc(F)cc4F)cc3)cn2n1 [Example 10.01]
C = CS(=O)(=O)c1ccc(Nc2nc3ccc(-c4ccc(NC(=O)Cc5ccc(F)cc5)cc4)cn3n2)c(OC(F)F)c1 [Example 01.35]
D = COc1cc(C(=O)NC(C)(C)C)ccc1Nc1nc2ccc(-c3ccc(C(=O)NCc4ccc(F)cc4)cc3)cn2n1 [Example 02.14]
Query :: Sort (4 molecules) by pIC50: min first. // rank by listing labels in the order requested
Result :: B, A, D, C

* * *

pIC50 values by entry
# tested-system: Mps-1 kinase (Homo sapiens, UniProt P33981)
# test-summary: Mps-1 kinase assay with 2 mM ATP (TR-FRET)
pIC50: −log10 of the molar value.

>>> value("CCOc1cc(C(=O)N(C)CCO)ccc1Nc1nc2ccc(-c3ccc(C(=O)NCc4ccc(F)cc4)cc3)cn2n1 [Example 02.12]")
"≥ 9.00"

Query :: Recorded pIC50 for CC(C)(C)NC(=O)c1ccc(Nc2nc3ccc(-c4ccc(NC(=O)Cc5ccc(F)cc5)cc4)cn3n2)c(OCC(F)(F)F)c1 [Example 01.21] with Mps-1 kinase (Homo sapiens, UniProt P33981), please?
Result :: ≥ 9.00

Query :: Try the compound CCN(C)C(=O)c1ccc(Nc2nc3ccc(-c4ccc(NC(=O)Cc5ccc(F)cc5)cc4)cn3n2)c(OC)c1 [Example 12.06]
Result :: ≥ 9.00

Query :: Try the compound CN(C)CCNC(=O)c1ccc(Nc2nc3ccc(-c4ccc(C(=O)NCc5ccc(F)cc5)cc4)cn3n2)c(OCC(F)(F)F)c1 [Example 12.58]
Result :: ≥ 9.00

Query :: Try the compound CNC(=O)c1ccc(Nc2nc3ccc(-c4ccc(NC(=O)Cc5ccc(F)cc5)cc4)cn3n2)c(OC)c1 [Example 01.30]
Result :: ≥ 9.00

Query :: Try the compound CCOc1cc(C(=O)NCC(C)(C)O)ccc1Nc1nc2ccc(-c3ccc(C(=O)NCc4ccc(F)cc4)cc3)cn2n1 [Example 02.7]
Result :: ≥ 9.00

Query :: Try the compound COc1ccc(Nc2nc3ccc(-c4ccc(C(=O)NCc5ccc(F)cc5)cc4)cn3n2)c(OC)c1 [Example 02.16]
Result :: 8.42

Query :: Try the compound CNCCN(C)C(=O)c1ccc(Nc2nc3ccc(-c4ccc(NC(=O)Cc5ccc(F)cc5)cc4)cn3n2)c(OC)c1 [Example 01.20]
Result :: ≥ 9.00

Query :: Try the compound O=C(NCc1ccc(F)cc1)c1ccc(-c2ccc3nc(Nc4ccc(F)cc4OC(F)F)nn3c2)cc1 [Example 12.63]
Result :: 7.59

Query :: Try the compound COc1cc(CO)ccc1Nc1nc2ccc(-c3ccc(C(=O)NCc4ccc(F)cc4)cc3)cn2n1 [Example 12.85]
Result :: 8.66

Query :: Try the compound CS(=O)(=O)c1ccc(Nc2nc3ccc(-c4ccc(NC(=O)Cc5ccc(F)cc5)cc4)cn3n2)c(OCC(F)(F)F)c1 [Example 01.34]
Result :: ≥ 9.00

Query :: Try the compound CCOc1cc(S(=O)(=O)CC)ccc1Nc1nc2ccc(-c3ccc(NC(=O)Cc4ccc(F)cc4)cc3)cn2n1 [Example 01.33]
Result :: 8.89

Query :: Try the compound COc1cc(CO)ccc1Nc1nc2ccc(-c3ccc(NC(=O)Cc4ccc(F)cc4)cc3)cn2n1 [Example 12.84]
Result :: ≥ 9.00

* * *

# tested-system: UniProt P33981
# Sequence (P33981 1-857): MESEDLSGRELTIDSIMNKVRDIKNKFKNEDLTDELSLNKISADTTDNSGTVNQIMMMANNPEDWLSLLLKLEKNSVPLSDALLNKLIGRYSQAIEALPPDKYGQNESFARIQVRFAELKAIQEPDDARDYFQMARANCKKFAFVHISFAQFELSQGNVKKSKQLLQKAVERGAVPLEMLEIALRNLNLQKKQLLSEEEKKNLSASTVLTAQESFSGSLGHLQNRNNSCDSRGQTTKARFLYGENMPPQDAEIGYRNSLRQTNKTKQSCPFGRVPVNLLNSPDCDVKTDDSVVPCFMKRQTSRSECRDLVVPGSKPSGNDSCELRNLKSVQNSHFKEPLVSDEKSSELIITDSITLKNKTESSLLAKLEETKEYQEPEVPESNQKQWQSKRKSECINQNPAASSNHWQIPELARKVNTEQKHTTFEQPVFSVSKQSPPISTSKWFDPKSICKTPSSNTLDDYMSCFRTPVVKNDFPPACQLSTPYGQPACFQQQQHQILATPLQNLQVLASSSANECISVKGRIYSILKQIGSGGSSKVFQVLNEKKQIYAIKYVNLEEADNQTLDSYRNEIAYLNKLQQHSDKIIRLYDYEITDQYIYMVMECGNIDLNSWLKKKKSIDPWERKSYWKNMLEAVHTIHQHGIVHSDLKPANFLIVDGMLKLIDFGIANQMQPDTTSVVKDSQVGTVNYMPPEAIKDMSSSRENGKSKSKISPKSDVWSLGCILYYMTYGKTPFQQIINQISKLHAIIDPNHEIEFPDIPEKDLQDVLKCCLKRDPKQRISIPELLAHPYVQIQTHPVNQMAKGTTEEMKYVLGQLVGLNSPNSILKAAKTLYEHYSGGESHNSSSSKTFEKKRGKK
# test-summary: Mps-1 kinase assay with 2 mM ATP (TR-FRET)
pIC50: −log10 of the molar value.
test-readout: pIC50

Recorded results for 5 compounds are shown here.
>>> value("O=C(NCCO)c1ccc(Nc2nc3ccc(-c4ccc(C(=O)NCC5CC5)cc4)cn3n2)c(OCC(F)(F)F)c1 [Example 06.4]")
7.96
>>> value("Cc1cc(S(C)(=O)=O)ccc1Nc1nc2ccc(-c3ccc(NC(=O)Cc4ccc(F)cc4)cc3)cn2n1 [Example 12.32]")
8.66
>>> value("Cc1cc(N(C)C)ccc1Nc1nc2ccc(-c3ccc(NC(=O)Cc4ccc(F)cc4)cc3)cn2n1 [Example 12.36]")
8.46
>>> value("COc1cc(C(=O)NCC(C)(C)O)ccc1Nc1nc2ccc(-c3ccc(C(=O)NCc4ccc(F)cc4)cc3)cn2n1 [Example 02.5]")
8.74
>>> value("COc1cc(S(C)(=O)=O)ccc1Nc1nc2ccc(-c3ccc(NC(=O)Cc4ccc(F)c(C)c4)cc3)cn2n1 [Example 12.40]")
8.00

a = Cc1ccc(CNC(=O)c2ccc(-c3ccc4nc(Nc5ccc([S@@+](C)[O-])cc5C)nn4c3)cc2)cc1 (stereo in doubt) [Example 12.78]
b = CCNC(=O)c1ccc(Nc2nc3ccc(-c4ccc(C(=O)NCc5ccc(F)cc5)cc4)cn3n2)c(C)c1 [Example 12.64]
c = CS(=O)(=O)c1ccc(Nc2nc3ccc(-c4ccc(NC(=O)Cc5ccc(F)cc5)cc4)cn3n2)c(F)c1 [Example 12.39]
Query :: Sort (3 compounds) by pIC50: min first. // rank by listing labels in the order requested
Result :: c, a, b
